Where a name gives a salt, the structure may show the parent alone.
melting point: recorded values

Some entries whose results are on file:
Molecule | melting point
FC(F)(F)Oc1ccc(OCC2CCCc3[nH]cnc32)cc1 (stereo not shown) (as salt: hydrochloride) [Example 58] | 202 to 209 °C
O=C1CCCc2c(OCC3CCCc4[nH]cnc43)cccc21 (stereo not shown) (as salt: hydrochloride) | 237 to 240 °C
COc1cc(C#N)ccc1OCC1CCCc2[nH]cnc21 (stereo not shown) (as salt: hydrochloride) | 193 to 195 °C

Now let's try a different one.
Can you share its melting point? I mean this molecule: O=C(c1ccc(OCC2CCCc3[nH]cnc32)cc1)C1CC1 (stereo not shown) (as salt: hydrochloride) [Example 63] 211 to 213 °C
